Hi there, I'd appreciate the recorded solubility (mole fraction) for every entry that follows.
Condition set: in acetonitrile, 313.15 K
Give bare numbers.

Below, each entry is followed by its recorded solubility (mole fraction) result.
COc1ccc(-c2nn(-c3ccccc3)cc2/C=C/C(=O)c2nc3ccccc3[nH]2)cc1OC
0.00017
O=C(/C=C/c1cn(-c2ccccc2)nc1-c1ccccc1)c1nc2ccccc2[nH]1
9.3e-05
O=C(/C=C/c1cn(-c2ccccc2)nc1-c1cccc([N+](=O)[O-])c1)c1nc2ccccc2[nH]1
0.000163
COc1cccc(-c2nn(-c3ccccc3)cc2/C=C/C(=O)c2nc3ccccc3[nH]2)c1
7.62e-05
O=C(/C=C/c1cn(-c2ccccc2)nc1-c1ccccc1Cl)c1nc2ccccc2[nH]1
0.00014
COc1ccc(-c2nn(-c3ccccc3)cc2/C=C/C(=O)c2nc3ccccc3[nH]2)cc1
0.00025

Next compound, solubility (mole fraction) to be filled in.
What measured solubility (mole fraction) goes with "O=C(/C=C/c1cn(-c2ccccc2)nc1-c1ccc(Cl)cc1)c1nc2ccccc2[nH]1" ?
0.000171

---

Could you please report measured solubility (mole fraction) for the items listed next?
Condition set: in acetonitrile, 328.15 K
One number for each entry.

O=C(/C=C/c1cn(-c2ccccc2)nc1-c1ccccc1Cl)c1nc2ccccc2[nH]1
0.000241
O=C(/C=C/c1cn(-c2ccccc2)nc1-c1cccc([N+](=O)[O-])c1)c1nc2ccccc2[nH]1
0.000232
COc1ccc(-c2nn(-c3ccccc3)cc2/C=C/C(=O)c2nc3ccccc3[nH]2)cc1OC
0.00023
COc1cccc(-c2nn(-c3ccccc3)cc2/C=C/C(=O)c2nc3ccccc3[nH]2)c1
0.000122
O=C(/C=C/c1cn(-c2ccccc2)nc1-c1ccccc1)c1nc2ccccc2[nH]1
0.000132

Would you mind listing solubility (mole fraction) for each of the following molecules?
1. O=C(/C=C/c1cn(-c2ccccc2)nc1-c1ccc(Cl)cc1)c1nc2ccccc2[nH]1
2. COc1ccc(-c2nn(-c3ccccc3)cc2/C=C/C(=O)c2nc3ccccc3[nH]2)cc1

1. 0.000211
2. 0.000329

---

For each entry below, report its solubility (mole fraction) value.
Condition set: in n-propanol, 323.15 K
Give bare numbers.

Answered examples (2):
O=C(/C=C/c1cn(-c2ccccc2)nc1-c1cccc([N+](=O)[O-])c1)c1nc2ccccc2[nH]1
0.000226
COc1cccc(-c2nn(-c3ccccc3)cc2/C=C/C(=O)c2nc3ccccc3[nH]2)c1
0.000231

Give solubility (mole fraction) for each listed item.
1. O=C(/C=C/c1cn(-c2ccccc2)nc1-c1ccccc1Cl)c1nc2ccccc2[nH]1
2. COc1ccc(-c2nn(-c3ccccc3)cc2/C=C/C(=O)c2nc3ccccc3[nH]2)cc1

[0.00022, 0.000615]

---

Condition set: in n-propanol, 328.15 K
Exercise: for every item that follows, state its recorded solubility (mole fraction).
One number for each entry.

// solved cases for solubility (mole fraction) follow
O=C(/C=C/c1cn(-c2ccccc2)nc1-c1ccccc1)c1nc2ccccc2[nH]1
0.000255
O=C(/C=C/c1cn(-c2ccccc2)nc1-c1cccc([N+](=O)[O-])c1)c1nc2ccccc2[nH]1
0.000251
COc1cccc(-c2nn(-c3ccccc3)cc2/C=C/C(=O)c2nc3ccccc3[nH]2)c1
0.000245

We now examine a further compound.
Fill in: solubility (mole fraction) of "O=C(/C=C/c1cn(-c2ccccc2)nc1-c1ccccc1Cl)c1nc2ccccc2[nH]1" is ___
0.000244

Data provenance: BigSolDB 2.1
